Biological target: IL-17A/A (Homo sapiens, UniProt Q16552)
Sequence (Q16552 24-155): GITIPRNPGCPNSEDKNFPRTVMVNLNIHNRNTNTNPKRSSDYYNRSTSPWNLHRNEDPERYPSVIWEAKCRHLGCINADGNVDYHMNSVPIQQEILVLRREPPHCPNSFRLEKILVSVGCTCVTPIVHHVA
Experiment: IL-17A/A HEK-Blue cell assay
Conditions: HEK-Blue IL-17A reporter cell line (HEK 293), IL-17A/A stimulation, 20 hours incubation, SEAP read at A630
Recorded IC50, one value per entry.

# COMPOUND, IC50
rows = [
    ("CCn1nccc1C(=O)N[C@H](c1cn2nc(CC3C[C@@H](C(F)(F)F)CNC3=O)ccc2n1)C1CC2(C1)CC(F)(F)C2 (single isomer, unassigned)", "100 to 1000 nM"),
    ("O=C(N[C@H](c1cn2nc(CC3C[C@@H](C(F)(F)F)CNC3=O)ccc2n1)C1CCC(F)(F)CC1)c1cnsn1 (stereo partly drawn)", "> 1000 nM"),
    ("CCn1nccc1C(=O)N[C@H](c1cn2ncc(CC3C[C@@H](C(F)(F)F)NC3=O)cc2n1)C(C1CC1)C1CC1 (single isomer, unassigned) [Compound 201]", "> 1000 nM"),
    ("CCn1nccc1C(=O)NC(c1cn2ncc(CC3CCC(C(F)(F)F)NC3=O)cc2n1)C1CCC(C)CC1 (single isomer, unassigned) [Compound 214]", "100 to 1000 nM"),
]

# value of IC50, IL-17A/A (Homo sapiens, UniProt Q16552), item Cc1nonc1C(=O)N[C@H](c1cn2nc(CC3CCCNC3=O)ccc2n1)C1CCCCCC1 (stereo partly drawn) = > 1000 nM

Recorded IC50 for O=C(N[C@H](c1cn2nc(CC3C[C@H](C(F)(F)F)CNC3=O)ccc2n1)[C@H]1CCCC(F)(F)C1)c1conc1C1CC1 (stereo partly drawn) on IL-17A/A (Homo sapiens, UniProt Q16552) was < 100 nM

Entry CCn1nccc1C(=O)N[C@H](c1cn2ncc(CC3CCNC3=O)cc2n1)C1CCCCCC1 (stereo partly drawn) ; assay system IL-17A/A (Homo sapiens, UniProt Q16552); IC50 recorded at > 1000 nM

Recorded IC50 for O=C(N[C@H](c1cn2nc(CC3C[C@@H](C(F)(F)F)CNC3=O)ccc2n1)C1CCC(F)(F)CC1)c1ccnn1C1CC1(F)F (single isomer, unassigned) [Compound 99] on IL-17A/A (Homo sapiens, UniProt Q16552) was 100 to 1000 nM

CC(C)n1nncc1C(=O)N[C@H](c1cn2nc(CC3C[C@@H](C(F)(F)F)CNC3=O)ccc2n1)C1CCC(F)(F)CC1 (stereo partly drawn) on IL-17A/A (Homo sapiens, UniProt Q16552) gives IC50 = 100 to 1000 nM

The compound CCn1nccc1C(=O)N[C@H](c1cn2nc(CC3CC(C4CC4)CNC3=O)ccc2n1)C1CCC(F)(F)CC1 (single isomer, unassigned) [Compound 71] , tested on IL-17A/A (Homo sapiens, UniProt Q16552), showed IC50 of 100 to 1000 nM

# IC50 measured on IL-17A/A (Homo sapiens, UniProt Q16552) for item Cn1nccc1C(=O)N[C@H](c1cn2nc(CC3C[C@@H](C(F)(F)F)CNC3=O)ccc2n1)[C@H]1CC[C@H](C)CC1 (stereo partly drawn) = 100 to 1000 nM

Field IC50 (IL-17A/A (Homo sapiens, UniProt Q16552)), entry C[C@H]1CC[C@H]([C@H](NC(=O)c2ccnn2CCO)c2cn3nc(CC4C[C@@H](C(F)(F)F)CNC4=O)ccc3n2)CC1 (stereo partly drawn) : 100 to 1000 nM

Let me check: O=C(N[C@H](c1cn2nc(CC3C[C@@H](C(F)(F)F)CNC3=O)ccc2n1)C1CCC(F)(F)CC1)c1conc1C(F)(F)F (stereo partly drawn) , system IL-17A/A (Homo sapiens, UniProt Q16552), measured IC50 is 100 to 1000 nM

Field IC50 (IL-17A/A (Homo sapiens, UniProt Q16552)), entry O=C(N[C@H](c1cn2nc(CC3C[C@@H](C(F)(F)F)CNC3=O)ccc2n1)C1CCC(F)(F)CC1)c1ccnn1C1CC1(F)F (single isomer, unassigned) [Compound 98] : < 100 nM

Fill in: IL-17A/A (Homo sapiens, UniProt Q16552) IC50 for CC(C)c1nonc1C(=O)N[C@H](c1cn2nc(CC3C[C@@H](C(F)(F)F)CNC3=O)ccc2n1)[C@@H]1CCCC(F)(F)C1 (stereo partly drawn) = < 100 nM

I looked up CCn1nccc1C(=O)N[C@H](c1cn2nc(CC3C[C@@H](C(F)(F)F)CNC3=O)c(N(C)C3CCOCC3)cc2n1)C1CCC(F)(F)CC1 (single isomer, unassigned) [Compound 93] and its IC50 for IL-17A/A (Homo sapiens, UniProt Q16552) was 100 to 1000 nM

The measured IC50 that Cc1nocc1C(=O)N[C@H](c1cn2nc(CC3C[C@@H](C(F)(F)F)CNC3=O)ccc2n1)C1CCC(F)(F)CC1 (stereo partly drawn) showed for IL-17A/A (Homo sapiens, UniProt Q16552) is 100 to 1000 nM

Tested system IL-17A/A (Homo sapiens, UniProt Q16552); IC50 recorded for CCn1nccc1C(=O)N[C@H](c1cn2nc(CC3CC4(CC4)NC3=O)ccc2n1)C(C1CC1)C1CC1 (stereo partly drawn) was 100 to 1000 nM

For the compound CC[C@@H]1CC(Cc2ccc3nc([C@@H](NC(=O)c4ccnn4CC)[C@H]4CC[C@H](C)CC4)cn3n2)C(=O)N1 (stereo partly drawn) , the measured IC50 on IL-17A/A (Homo sapiens, UniProt Q16552) was 100 to 1000 nM

Entry CCn1nccc1C(=O)N[C@H](c1cn2nc(CC3CCCNC3=O)ccc2n1)C1CCCCCC1 (single isomer, unassigned) [Compound 11] , tested on IL-17A/A (Homo sapiens, UniProt Q16552), has a reported IC50 of > 1000 nM
